Tested on: AGS
Experiment: CellTiter-Glo Reagent cancer cell line proliferation assay, AGS
Format: cell-based, human
Details: Homo sapiens, 24 h, KRAS(G12D) heterozygous
Where a name gives a salt, the structure may show the parent alone.
measuredAttribute: IC50

INSERT INTO assay_data (compound, recordedvalue) VALUES
  ('C#Cc1c(F)ccc2cc(O)cc(-c3ncc4c(N5CC6CCC(C5)N6C(=O)CC(C)C#N)nc(OCC5(CN6CCN(CC7CCN(c8ccc9c(c8)n(C)c(=O)n9C8CCC(=O)NC8=O)CC7)CC6)CC5)nc4c3F)c12 (centres unmarked) [Compound 136]', '< 100 nM'),
  ('C#Cc1c(F)ccc2cc(O)cc(-c3nc(OC)c4c(N5CC6CCC(C5)N6C(=O)CC(C)C#N)nc(OCC5CCCN(CC6CCN(c7ccc8c(c7)CN(C7CCC(=O)NC7=O)C8=O)CC6)C5)nc4c3F)c12 (centres unmarked) [Compound 146]', '< 100 nM'),
  ('C#Cc1c(F)ccc2cc(O)cc(-c3ncc4c(N5C[C@H]6CC[C@@H](C5)N6)nc(OCC5(CN(C)Cc6ccc(C7CN(c8ccc9c(c8)CN(C8CCC(=O)NC8=O)C9=O)C7)cc6)CC5)nc4c3F)c12 (some centres unmarked) [Compound 92, formate]', '< 100 nM'),
  ('C#Cc1c(F)ccc2cc(O)cc(-c3nc(OC)c4c(N5CC6CCC(C5)N6C(=O)CC(C)C#N)nc(OCC5(CN6CCN(CC7CCN(c8ccc9c(c8)CN(C8CCC(=O)NC8=O)C9=O)CC7)CC6)CC5)nc4c3F)c12 (centres unmarked) [Compound 135]', '< 100 nM'),
  ('O=CO.[2H]C([2H])([2H])Oc1nc(-c2cc(O)cc3ccc(F)c(C#C)c23)c(F)c2nc(OCC3(CN4CCN(CC5CCN(c6ccc7c(c6)CN(C6CCC(=O)NC6=O)C7=O)CC5)CC4)CC3)nc(N3CC4CCC(C3)N4C(=O)C(C#N)CC(F)(F)F)c12 (centres unmarked) [Compound 121]', '> 1000 nM'),
  ('O=CO.[2H]C([2H])([2H])Oc1nc(-c2cc(O)cc3ccc(F)c(C#C)c23)c(F)c2nc(OCC3(CN4CCN(CC5CCN(c6ccc7c(c6)CN(C6CCC(=O)NC6=O)C7=O)CC5)CC4)CC3)nc(N3CC4CCC(C3)N4C(=O)CCC#N)c12 (centres unmarked) [Compound 114]', '< 100 nM'),
  ('C#Cc1c(F)ccc2cc(O)cc(-c3nc(OC(F)(F)F)c4c(N5CC6CCC(C5)N6C(=O)CCC#N)nc(OCC5(CN6CCN(CC7CCN(c8ccc9c(c8)CN(C8CCC(=O)NC8=O)C9=O)CC7)CC6)CC5)nc4c3F)c12 (centres unmarked) [Compound 151]', '< 100 nM'),
  ('C#Cc1c(F)ccc2cc(O)cc(-c3ncc4c(N5CC6CCC(C5)N6C(=O)C5(C#N)CC5)nc(OCC5(CN6CCN(CC7CCN(c8ccc9c(c8)CN(C8CCC(=O)NC8=O)C9=O)CC7)CC6)CC5)nc4c3F)c12 (centres unmarked) [Compound 107]', '> 1000 nM'),
  ('C#Cc1c(F)ccc2cc(O)cc(-c3ncc4c(N5CC6CCC(C5)N6)nc(OCC5(CN6CCC(C#Cc7ccc8c(c7)CN(C7CCC(=O)NC7=O)C8=O)CC6)CC5)nc4c3F)c12 (centres unmarked) [Compound 91]', '< 100 nM'),
  ('O=CO.[2H]C([2H])([2H])Oc1nc(-c2cc(O)cc3ccc(F)c(C#C)c23)c(F)c2nc(OCC3(CN4CCN(CC5CCN(c6ccc7c(c6)CN(C6CCC(=O)NC6=O)C7=O)CC5)CC4)CC3)nc(N3CC4CCC(C3)N4CCO)c12 (centres unmarked) [Compound 98]', '< 100 nM'),
  ('C#Cc1c(F)ccc2cc(O)cc(-c3nc(OC)c4c(N5CC6CCC(C5)N6C(=O)NCC(F)(F)F)nc(OCC5(CN6CCN(CC7CCN(c8ccc9c(c8)CN(C8CCC(=O)NC8=O)C9=O)CC7)CC6)CC5)nc4c3F)c12 (centres unmarked) [Compound 123]', '< 100 nM'),
  ('C#Cc1c(F)ccc2cc(O)cc(-c3nc(OC)c4c(N5CC6CCC(C5)N6C(=O)C[C@@H](C)C#N)nc(OCC5(CN6CCN(CC7CCN(c8ccc9c(c8)CN(C8CCC(=O)NC8=O)C9=O)CC7)CC6)CC5)nc4c3F)c12 (some centres unmarked) [Compound 143]', '< 100 nM'),
  ('C#Cc1c(F)ccc2cc(O)cc(-c3ncc4c(N5CC6CCC(C5)N6C(=O)CC(C)C#N)nc(OCC5(CN(C)Cc6ccc(C7CN(c8ccc9c(c8)CN(C8CCC(=O)NC8=O)C9=O)C7)cc6)CC5)nc4c3F)c12 (centres unmarked) [Compound 132]', '< 100 nM'),
  ('[2H]C([2H])([2H])Oc1nc(-c2cc(O)cc3ccc(F)c(C#C)c23)c(F)c2nc(OCC3(CN4CCN(CC5CCN(c6ccc7c(c6)CN(C6CCC(=O)NC6=O)C7=O)CC5)CC4)CC3)nc(N3CC4CCC(C3)N4CC(F)(F)F)c12 (centres unmarked) [Compound 97]', '100 to 1000 nM'),
  ('C#Cc1c(F)ccc2cc(O)cc(-c3nc(OC)c4c(N5CC6CCC(C5)N6C(=O)C[C@@H](C)C#N)nc(OCC5(CN6CCN(CC7CCN(c8ccc9c(N%10CCC(=O)NC%10=O)nn(C)c9c8)CC7)CC6)CC5)nc4c3F)c12 [Compound 160]', '< 100 nM'),
  ('C#Cc1c(F)ccc2cc(O)cc(-c3ncc4c(N5CC6CCC(C5)N6)nc(OCC5(CN6CCN(CC7CCN(c8ccc9c(c8)CN(C8CCC(=O)NC8=O)C9=O)CC7)CC6)CC5)nc4c3F)c12 (centres unmarked) [Compound 43]', '< 100 nM'),
  ('O=CO.[2H]C([2H])([2H])Oc1nc(-c2cc(O)cc3ccc(F)c(C#C)c23)c(F)c2nc(OCC3(CN4CCN(CC5CCN(c6ccc7c(c6)CN(C6CCC(=O)NC6=O)C7=O)CC5)CC4)CC3)nc(N3CC4CCC(C3)N4CC#N)c12 (centres unmarked) [Compound 94]', '< 100 nM');

Numbers sourced from patent US20260325654A1.
